# target-system: ATP-dependent translocase ABCB1 (Homo sapiens, UniProt P08183, F728C/L339C/T199R)
# Sequence (P08183 whole entry T199R/L339C/F728C): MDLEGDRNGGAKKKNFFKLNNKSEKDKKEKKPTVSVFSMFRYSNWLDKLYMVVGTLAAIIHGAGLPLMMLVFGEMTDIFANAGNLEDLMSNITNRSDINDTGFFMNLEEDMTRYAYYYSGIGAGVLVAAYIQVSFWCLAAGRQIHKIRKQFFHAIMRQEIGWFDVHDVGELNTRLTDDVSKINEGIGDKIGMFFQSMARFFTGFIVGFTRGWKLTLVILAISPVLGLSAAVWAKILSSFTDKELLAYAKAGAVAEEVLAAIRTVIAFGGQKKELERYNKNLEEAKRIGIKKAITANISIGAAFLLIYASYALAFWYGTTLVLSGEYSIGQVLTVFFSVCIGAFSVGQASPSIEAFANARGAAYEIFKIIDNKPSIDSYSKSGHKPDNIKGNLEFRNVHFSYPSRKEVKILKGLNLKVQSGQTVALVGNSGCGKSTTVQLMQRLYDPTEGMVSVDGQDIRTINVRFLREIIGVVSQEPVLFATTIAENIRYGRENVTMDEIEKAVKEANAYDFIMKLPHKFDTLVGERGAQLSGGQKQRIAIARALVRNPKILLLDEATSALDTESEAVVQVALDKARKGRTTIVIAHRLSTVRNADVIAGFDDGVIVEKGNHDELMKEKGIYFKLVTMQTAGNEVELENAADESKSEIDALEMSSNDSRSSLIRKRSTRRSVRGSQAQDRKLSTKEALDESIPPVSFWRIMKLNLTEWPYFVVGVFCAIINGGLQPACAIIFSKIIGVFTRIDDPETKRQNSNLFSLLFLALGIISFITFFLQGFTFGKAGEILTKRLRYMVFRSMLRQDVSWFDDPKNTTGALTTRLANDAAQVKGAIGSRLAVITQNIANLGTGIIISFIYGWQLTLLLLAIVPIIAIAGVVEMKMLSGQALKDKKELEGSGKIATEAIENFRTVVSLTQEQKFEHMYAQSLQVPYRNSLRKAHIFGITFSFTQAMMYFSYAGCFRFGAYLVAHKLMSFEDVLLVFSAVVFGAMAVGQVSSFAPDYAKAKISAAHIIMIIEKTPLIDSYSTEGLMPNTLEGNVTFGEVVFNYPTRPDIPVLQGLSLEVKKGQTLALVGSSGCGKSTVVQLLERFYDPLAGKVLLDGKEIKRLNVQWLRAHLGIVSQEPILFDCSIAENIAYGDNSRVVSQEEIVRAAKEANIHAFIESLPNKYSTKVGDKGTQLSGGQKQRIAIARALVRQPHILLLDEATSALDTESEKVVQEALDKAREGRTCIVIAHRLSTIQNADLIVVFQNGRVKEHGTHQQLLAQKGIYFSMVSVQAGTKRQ
# test-name: Inhibition of cross-linking of human Pgp TM3 T199R/TM6 L339C/TM7 F728C mutant expressed in HEK293 cells assessed as drug level causing 50% inhibition of cross linking by immunoblot
# run-conditions: read-out: Activity
endpoint-label: pIC50
Units for pIC50: none; it is -log10 of a concentration expressed in mol/L.

[in] Which pIC50 value belongs to CCN(CC)c1ccc2c(-c3ccccc3C(=O)O)c3ccc(=[N+](CC)CC)cc-3oc2c1 ?
[out] 4.11

---

# target-system: ATP-dependent translocase ABCB1 (Homo sapiens, UniProt P08183, F343R/F728C/L339C)
# test-name: Inhibition of cross-linking of human Pgp TM6 F343R/TM6 L339C/TM7 F728C mutant expressed in HEK293 cells assessed as drug level causing 50% inhibition of cross linking by immunoblot
# run-conditions: read-out: Activity
endpoint-label: IC50 (µM)
Provide only the numeric value, understood in µM.

[in] Form field: reported IC50 of CCN(CC)c1ccc2c(-c3ccccc3C(=O)O)c3ccc(=[N+](CC)CC)cc-3oc2c1
[out] 320
